System: Escherichia coli
Experiment: Antibacterial activity against Escherichia coli lacking chromosomal rrn alleles and containing pKK35 plasmids possessing 23S rRNA A2503C mutant assessed as inhibition of bacterial growth
Type: functional, organism-based
IC50 listing for selected compounds.
Numbers only here, please. The scale is µM.

Past entries and their recorded results:
NCCCN(CCCCN(Cc1ccccc1)Cc1ccccc1)C(=O)CCC(=O)N[C@H](CO)[C@H](O)c1ccc([N+](=O)[O-])cc1	9.4
O=C(CCC(=O)N[C@H](CO)[C@H](O)c1ccc([N+](=O)[O-])cc1)NCCCNCCCCN(Cc1ccccc1)Cc1ccccc1	37.1

INPUT: Which value of IC50 has been reported for `O=C(N[C@H](CO)[C@H](O)c1ccc([N+](=O)[O-])cc1)C(Cl)Cl` in the records?
OUTPUT: 24.7
